Measured IC50 by item
# Target of assay: BRM (Homo sapiens)
# Protocol text: ATPase catalytic activity assay of BRM (ADP-Glo)
# Format: biochemical
# Applied conditions: BRM IC50 (μM)*

>  <Compound>
CC(C)S(=O)(=O)c1cccc(C(=O)NCC(=O)Nc2nc(-c3cccc(-c4ccnc(N)c4)c3)cs2)c1 [Compound 22]

>  <IC50>
< 0.1 µM

$$$$

Now for the compound whose IC50 we want.
Q: // query IC50 value for entry CC(C)S(=O)(=O)c1cccc(C(=O)NCC(=O)Nc2nc(-c3cccc(-c4cccc(Cl)c4)c3)cs2)c1 [Compound 28]
Ans: 0.1 to 1 µM

* * *

# Target of assay: BRM (Homo sapiens, UniProt P51531)
# Sequence (P51531 whole entry): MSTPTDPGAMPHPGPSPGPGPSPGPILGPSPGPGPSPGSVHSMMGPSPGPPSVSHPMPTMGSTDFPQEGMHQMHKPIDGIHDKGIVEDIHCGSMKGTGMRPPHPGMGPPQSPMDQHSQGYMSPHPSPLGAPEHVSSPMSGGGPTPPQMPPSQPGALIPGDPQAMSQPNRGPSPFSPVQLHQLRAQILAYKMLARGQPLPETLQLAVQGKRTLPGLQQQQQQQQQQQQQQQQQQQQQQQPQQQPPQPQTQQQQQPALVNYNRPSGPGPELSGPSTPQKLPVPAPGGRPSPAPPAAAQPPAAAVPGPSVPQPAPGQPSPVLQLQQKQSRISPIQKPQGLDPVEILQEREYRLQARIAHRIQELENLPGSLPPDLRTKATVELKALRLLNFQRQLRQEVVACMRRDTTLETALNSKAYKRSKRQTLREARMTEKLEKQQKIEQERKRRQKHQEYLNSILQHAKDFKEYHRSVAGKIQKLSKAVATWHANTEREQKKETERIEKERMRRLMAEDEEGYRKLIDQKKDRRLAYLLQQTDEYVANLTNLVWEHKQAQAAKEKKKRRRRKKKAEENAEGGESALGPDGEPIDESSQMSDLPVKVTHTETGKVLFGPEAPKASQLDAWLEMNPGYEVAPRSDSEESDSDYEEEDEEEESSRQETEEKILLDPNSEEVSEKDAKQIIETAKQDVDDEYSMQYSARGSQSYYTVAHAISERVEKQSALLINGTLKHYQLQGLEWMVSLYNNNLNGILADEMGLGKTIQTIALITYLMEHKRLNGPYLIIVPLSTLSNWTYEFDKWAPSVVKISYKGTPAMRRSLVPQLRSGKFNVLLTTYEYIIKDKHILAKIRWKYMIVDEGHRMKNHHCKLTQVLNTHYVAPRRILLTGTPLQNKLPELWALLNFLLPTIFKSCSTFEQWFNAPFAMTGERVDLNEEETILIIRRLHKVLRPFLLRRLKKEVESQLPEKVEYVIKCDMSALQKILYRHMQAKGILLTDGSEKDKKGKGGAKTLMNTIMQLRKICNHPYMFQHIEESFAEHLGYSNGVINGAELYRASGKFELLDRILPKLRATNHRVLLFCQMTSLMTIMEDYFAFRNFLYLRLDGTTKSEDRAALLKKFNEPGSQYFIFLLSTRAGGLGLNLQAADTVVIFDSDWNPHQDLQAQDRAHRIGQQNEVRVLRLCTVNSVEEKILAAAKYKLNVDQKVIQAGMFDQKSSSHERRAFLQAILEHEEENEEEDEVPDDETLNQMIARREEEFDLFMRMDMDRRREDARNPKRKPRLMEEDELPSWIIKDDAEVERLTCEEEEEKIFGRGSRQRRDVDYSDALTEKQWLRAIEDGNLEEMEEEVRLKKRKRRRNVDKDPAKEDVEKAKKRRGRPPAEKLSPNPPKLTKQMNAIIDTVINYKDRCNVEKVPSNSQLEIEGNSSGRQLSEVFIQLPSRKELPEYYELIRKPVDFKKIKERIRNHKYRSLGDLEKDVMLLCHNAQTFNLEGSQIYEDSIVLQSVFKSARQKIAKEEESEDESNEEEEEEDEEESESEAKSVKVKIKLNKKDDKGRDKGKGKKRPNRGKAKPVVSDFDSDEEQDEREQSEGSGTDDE
# Protocol text: ATPase catalytic activity assay of BRM (ADP-Glo)
# Type: biochemical
Property measured: BRM Max % Inhibition

Worked examples, 3 compounds total:
>  <Smi>
C[C@@]1(F)COCc2ccc(C(=O)NCC(=O)Nc3nc(-c4ccccc4)cs3)cc21

>  <Target of assay>
BRM (Homo sapiens, UniProt P51531)

>  <BRM Max % Inhibition>
>95%

$$$$
>  <Smi>
C[Si](C)(C)c1cccc(C(=O)NCC(=O)Nc2nc(-c3cccc(-c4ccncc4)c3)cs2)c1

>  <Target of assay>
BRM (Homo sapiens, UniProt P51531)

>  <BRM Max % Inhibition>
>40%

$$$$
>  <Smi>
COc1cccc(-c2csc(NC(=O)CNC(=O)c3ccc4c(c3)[C@@](C)(F)CCOC4)n2)c1

>  <Target of assay>
BRM (Homo sapiens, UniProt P51531)

>  <BRM Max % Inhibition>
>90%

$$$$

Now for the compound whose BRM Max % Inhibition we want.
Q: // query BRM Max % Inhibition value for entry `COc1cccc(-c2csc(NC(=O)CNC(=O)c3ccc4c(c3)[C@](C)(F)COC4)n2)c1`
Ans: >95%

* * *

# Target of assay: BRM (Homo sapiens, UniProt P51531)
# Protocol text: ATPase catalytic activity assay of BRM (ADP-Glo)
# Assay type: biochemical
# Applied conditions: read-out: BRM IC50 (μM)*
Property measured: IC50

>  <Compound>
C[C@@]1(F)COCc2ccc(C(=O)NCC(=O)Nc3nc(-c4cc(F)cc(C#N)c4)cs3)cc21 [Compound 314]

>  <IC50>
< 0.1 µM

$$$$
>  <Compound>
C[C@@]1(F)COCc2ccc(C(=O)NCC(=O)Nc3nc(-c4ccnc(C5(O)CC5)c4)cs3)cc21 [Compound 330]

>  <IC50>
< 0.1 µM

$$$$
>  <Compound>
C[C@@]1(C#N)COCc2ccc(C(=O)NCC(=O)Nc3nc(-c4cccc([C@@H]5CC5(F)F)n4)cs3)cc21 [Compound 386]

>  <IC50>
< 0.1 µM

$$$$

Q: // query IC50 value for entry Cn1cnc2ccc(-c3csc(NC(=O)CNC(=O)c4ccc5c(c4)[C@@](C)(CO)CC5)n3)cc21 [Compound 257]
Ans: 1 to 5 µM

Q: // query IC50 value for entry C[C@@H]1CN(c2cccc(-c3csc(NC(=O)CNC(=O)c4cc(C(C)(C)C)ncc4F)n3)c2)C[C@H](C)O1 [Compound 383]
Ans: 0.1 to 1 µM

* * *

# Target of assay: BRG-1 (Homo sapiens)
# Sequence (P51532 whole entry): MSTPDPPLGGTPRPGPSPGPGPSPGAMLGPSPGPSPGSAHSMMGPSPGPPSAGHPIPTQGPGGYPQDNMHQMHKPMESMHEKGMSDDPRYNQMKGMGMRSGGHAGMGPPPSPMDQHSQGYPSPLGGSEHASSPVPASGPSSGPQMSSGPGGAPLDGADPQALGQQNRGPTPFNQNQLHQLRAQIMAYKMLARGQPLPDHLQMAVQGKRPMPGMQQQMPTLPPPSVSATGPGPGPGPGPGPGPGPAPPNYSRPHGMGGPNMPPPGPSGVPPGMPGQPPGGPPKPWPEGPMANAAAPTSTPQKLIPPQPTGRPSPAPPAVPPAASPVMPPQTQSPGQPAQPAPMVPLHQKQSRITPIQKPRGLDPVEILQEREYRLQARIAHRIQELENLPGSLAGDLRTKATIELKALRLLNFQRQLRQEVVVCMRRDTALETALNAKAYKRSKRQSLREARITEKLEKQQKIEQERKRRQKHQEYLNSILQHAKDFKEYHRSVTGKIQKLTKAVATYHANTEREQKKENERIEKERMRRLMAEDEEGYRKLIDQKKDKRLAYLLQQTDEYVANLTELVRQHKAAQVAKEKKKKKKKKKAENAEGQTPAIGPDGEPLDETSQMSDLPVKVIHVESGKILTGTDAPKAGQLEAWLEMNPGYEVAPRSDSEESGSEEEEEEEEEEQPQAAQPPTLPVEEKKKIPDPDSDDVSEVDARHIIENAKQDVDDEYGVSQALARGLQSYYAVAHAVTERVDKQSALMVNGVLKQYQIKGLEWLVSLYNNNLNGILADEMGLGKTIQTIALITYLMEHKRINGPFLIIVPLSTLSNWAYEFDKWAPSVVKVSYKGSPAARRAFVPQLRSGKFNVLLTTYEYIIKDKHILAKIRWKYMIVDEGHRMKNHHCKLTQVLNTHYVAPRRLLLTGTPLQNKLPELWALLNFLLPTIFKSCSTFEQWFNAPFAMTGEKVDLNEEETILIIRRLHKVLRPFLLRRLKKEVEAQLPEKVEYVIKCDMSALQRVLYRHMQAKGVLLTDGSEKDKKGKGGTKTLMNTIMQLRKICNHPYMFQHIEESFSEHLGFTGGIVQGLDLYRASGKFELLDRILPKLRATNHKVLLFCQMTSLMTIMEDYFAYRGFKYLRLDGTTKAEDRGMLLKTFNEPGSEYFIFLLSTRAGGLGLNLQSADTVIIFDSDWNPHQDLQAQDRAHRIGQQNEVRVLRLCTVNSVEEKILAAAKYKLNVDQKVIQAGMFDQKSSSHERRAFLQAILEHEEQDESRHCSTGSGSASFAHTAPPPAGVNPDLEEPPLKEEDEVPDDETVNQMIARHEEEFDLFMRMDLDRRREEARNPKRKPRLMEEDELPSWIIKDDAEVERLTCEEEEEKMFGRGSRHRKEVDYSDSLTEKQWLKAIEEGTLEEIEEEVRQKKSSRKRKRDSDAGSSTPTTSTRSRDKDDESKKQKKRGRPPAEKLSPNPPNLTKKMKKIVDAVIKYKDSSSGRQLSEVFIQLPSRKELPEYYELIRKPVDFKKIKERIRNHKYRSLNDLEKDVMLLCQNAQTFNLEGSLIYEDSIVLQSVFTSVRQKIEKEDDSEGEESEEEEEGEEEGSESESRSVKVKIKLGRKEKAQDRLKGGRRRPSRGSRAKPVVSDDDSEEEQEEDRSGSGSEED
# Protocol text: ATPase catalytic activity assay of BRG-1 (ADP-Glo)
# Assay type: biochemical
# Applied conditions: ATPase catalytic activity, ADP-Glo; read-out: BRG1 Max % Inhibition
Property measured: Emax

Worked examples, 3 compounds total:
>  <Smi>
Cc1cc(-c2cccc(-c3csc(NC(=O)CNC(=O)c4cccc(C(C)(C)CO)c4)n3)n2)ncn1

>  <Emax>
> 80%

$$$$
>  <Smi>
C[C@@H]1CN(c2cc(F)cc(-c3csc(NC(=O)CNC(=O)c4ccc(F)c(C(C)(C)CO)c4)n3)c2)C[C@H](C)O1

>  <Emax>
> 95%

$$$$
>  <Smi>
CC(C)(CN)c1cccc(C(=O)NCC(=O)Nc2nc(-c3cccc(-c4ccncc4)c3)cs2)c1

>  <Emax>
> 80%

$$$$

Q: // query Emax value for entry `C[C@@H]1CN(c2cccc(-c3csc(NC(=O)CNC(=O)c4ccc5c(c4)[C@H]([C@H](C)O)CC5)n3)n2)C[C@H](C)O1`
Ans: > 60%

The measured values listed here are drawn from patent US12685735B2.
